The following molecules are listed with their measured condensed nuclei values.
- ASSAY NOTES: HT29 colon tumor cell growth inhibition, primary screen, imaging, high content imaging, 72 h, CellTiter-Glo (AID 772);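 on condensed nuclei: condensed means nuclear area below control median minus 1.5 SD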
- PARTICULARS: HCS imaging cell count, measured here: percent cells with condensed nuclei, at 10 µM, stronger effect = higher value
Out of some 3,300 compounds screened, about 20 (0.6%) were called active. This excerpt belongs to a sample that is enriched for actives.

{"columns": ["MOLECULE", "condensed nuclei / %"],
 "data": [
  ["C=CCc1cccc(/C=N/c2ncn[nH]2)c1O", 2.92],
  ["Cc1cc2c(c(=O)n1CC1CCCO1)C(c1ccc3c(c1)OCO3)C(C#N)=C(N)O2 (stereo not drawn)", 2.84],
  ["CCOC(=O)c1ccc(NC(=O)CCC(CC)C(=O)O)cc1 (stereo not drawn)", 2.9],
  ["C=CCc1cccc(CNc2nc3ccccc3n2C(C)C)c1O", 14.6],
  ["COCCCNc1nc(-c2ccncc2)nc2ccccc12", 44.1],
  ["COc1ccc2[nH]c(C)c(C(=O)CN3CCN(C(=O)c4ccco4)CC3)c2c1", 3.46],
  ["Oc1ccccc1-c1nc(NCCN2CCOCC2)c2ccccc2n1", 18.9],
  ["Cn1c(OCc2ccco2)nc2c1c(=O)n(Cc1ccc(Cl)c(Cl)c1)c(=O)n2C", 6.05],
  ["COc1cccc(OC)c1OCCN1CCN(C(=O)c2ccco2)CC1", 3.57],
  ["Cc1cc(COc2ccccc2OCCN2CCN(C)CC2)no1", 1.56],
  ["COc1cc2nc(N3CCN(C(=O)c4ccco4)CC3)nc(N)c2cc1OC", 30.2],
  ["COc1cc2nc(N3CCN(C(=O)C4COc5ccccc5O4)CC3)nc(N)c2cc1OC (stereo not drawn)", 21.8],
  ["CN1C(=O)N(c2ccccc2)C(Nc2nncs2)C1(C)C (stereo not drawn)", 5.92],
  ["CCOC(=O)c1[nH]c2ccc(OC)cc2c1NC(=O)CCN1CCC(C)CC1", 9.76],
  ["CCOC(=O)C1CCN(C(C)=C2C(=O)c3ccccc3C2=O)CC1", 15.2],
  ["Cc1nc2sccn2c(=O)c1CCN1CCC(=C(c2ccc(F)cc2)c2ccc(F)cc2)CC1", 24.1],
  ["C=CCc1cccc(/C=N/n2cnnc2)c1O", 13.3],
  ["Clc1ccccc1-c1nn2c(-c3ccccn3)nnc2s1", 15.7],
  ["CC(C)(C)C1=Nn2c(nnc2-c2ccccn2)SC1", 2.89],
  ["CN1CCc2nc(SCC(=O)Nc3ccc(Cl)cc3)c(C#N)cc2C1", 17.3],
  ["Cc1nc2ccccn2c(=O)c1CCN1CCC(C(=O)c2ccc(F)cc2)CC1", 24.8],
  ["Cc1nc2sccn2c(=O)c1CCN1CCC(=C(c2ccccc2)c2ccc(F)cc2)CC1", 5.93],
  ["COc1cc2nc(N3CCN(C(=O)C4CCCO4)CC3)nc(N)c2cc1OC (stereo not drawn)", 2.06]
]}

----------
- ASSAY NOTES: HT29 colon tumor cell growth inhibition, primary screen, imaging, high content imaging, 72 h, CellTiter-Glo (AID 772)
- PARTICULARS: HCS imaging cell count, at 10 µM, stronger effect = higher value
Out of some 3,300 compounds screened, about 20 (0.6%) were called active. Only a selection was taken, and actives are over-represented in it overall.
Where growth inhibition equals or exceeds 20%, the correct label is T; where it does not, the label is F.

{"columns": ["COMPOUND", "GROUP"],
 "data": [
  ["CCCOc1ccc(Cl)cc1CN1CCOCC1", "F"],
  ["Cc1cc2c(c(=O)o1)C(CC(C)C)C(C#N)=C(N)O2 (configuration not stated)", "F"],
  ["Cc1ccccc1C(=O)c1ccc2c(c1)n(C)c(=O)n2C", "F"],
  ["CNc1nc(C)c(C#N)cc1C(C)=O", "T"],
  ["Cc1ccc2cc(CN(C(=O)c3ccco3)c3ccccc3C)c(=O)[nH]c2c1", "F"],
  ["O=C(c1ccc2c3c(cccc13)C(=O)N(O)C2=O)N1CCCCC1", "T"],
  ["N/C(CCN1CCCCC1)=N/O", "T"],
  ["CCN(CC)CCOC(=O)c1c(C)n(C)c2ccc(OC)cc12", "F"],
  ["CN1CCCN=C1COC(=O)C(O)(c1ccccc1)C1CCCCC1 (configuration not stated)", "F"],
  ["Cc1ccc(N2C(=O)[C@@H]3[C@H](C2=O)C2CCCN2[C@@H]3C(=O)c2ccccc2)cc1 (some centres not stated)", "T"],
  ["CC1(c2ccco2)NC(=O)NC1=O (configuration not stated)", "F"],
  ["Cc1cc(=O)[nH]c(SCC(=O)c2ccccc2)c1C#N", "T"],
  ["Fc1ccccc1-c1nc(NCCCN2CCOCC2)c2ccccc2n1", "T"],
  ["Cc1cc(C(=O)O)c(CSc2ncn[nH]2)o1", "F"],
  ["COC(=O)C(NC(C)=O)(Nc1ccc(Br)cn1)C(F)(F)F (configuration not stated)", "F"],
  ["COCCN(CCOC)C(=O)C12CCC(C)(C(=O)C1)C2(C)C (configuration not stated)", "T"],
  ["CCCOc1ccc(CSC(CC(=O)O)C(=O)O)cc1 (configuration not stated)", "F"],
  ["CO[C@H]1C[C@@H]2CC[C@@H](C)[C@@](O)(O2)C(=O)C(=O)N2CCCC[C@H]2C(=O)O[C@H]([C@H](C)C[C@@H]2CC[C@@H](O)[C@H](OC)C2)CC(=O)[C@H](C)C=C(C)[C@@H](O)[C@@H](OC)C(=O)[C@H](C)C[C@H](C)C=CC=CC=C1C", "F"],
  ["COc1cccc(-c2nc(NCCN3CCOCC3)c3ccccc3n2)c1O", "T"],
  ["Oc1ccccc1-c1nc(NCCN2CCOCC2)c2ccccc2n1", "T"],
  ["Cc1cccn2c(=O)c3cc(C#N)c(=N)n(Cc4ccncc4)c3nc12", "F"],
  ["COC(=O)NC(Nc1sc2c(c1C(N)=O)CCCC2)(C(=O)OC)C(F)(F)F (configuration not stated)", "F"]
]}
